Test: self-splicing fitness, log relative to wild type (ln ratio); higher = more splicing; Tetrahymena group I intron in knt gene, E. coli kanamycin selection, DiMSum; sequences stand for … in CUCUCU…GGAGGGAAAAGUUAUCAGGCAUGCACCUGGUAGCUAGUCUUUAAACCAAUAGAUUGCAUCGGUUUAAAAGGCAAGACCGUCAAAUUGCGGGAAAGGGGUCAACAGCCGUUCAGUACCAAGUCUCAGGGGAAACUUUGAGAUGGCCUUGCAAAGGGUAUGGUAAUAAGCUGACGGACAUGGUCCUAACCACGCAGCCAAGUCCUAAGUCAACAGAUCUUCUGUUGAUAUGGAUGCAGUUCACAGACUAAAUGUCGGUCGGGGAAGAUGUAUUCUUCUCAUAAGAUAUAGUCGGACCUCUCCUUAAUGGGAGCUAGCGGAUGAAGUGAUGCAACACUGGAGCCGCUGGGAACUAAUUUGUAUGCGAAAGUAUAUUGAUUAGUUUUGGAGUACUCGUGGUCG;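 further: selection with 25 µg/mL kanamycin versus none on LB agar overnight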
Details: 30 °C
This listing pairs sequences with measured self-splicing fitness (ln).
When you answer, write just the number.

Consider the worked cases shown below.
chain: CAACAGCAAUAUUACGCGAU
self-splicing fitness (ln): -5.11

chain: CUGUAGCAAUAUUACGUAGC
self-splicing fitness (ln): -5.54

chain: AUUAAGCAAUAUUACGUAUG
self-splicing fitness (ln): -2.74

**Query** So what's the measured self-splicing fitness (ln) for this one? GAAUAGCAAUAUUACGGGAC
**Result** -3.37

**Query** So what's the measured self-splicing fitness (ln) for this one? AAGCAGCAAUAUUACGGUGU
**Result** -1.85

**Query** So what's the measured self-splicing fitness (ln) for this one? AGCUAGCAAUAUUACGUGAC
**Result** -3.94

**Query** So what's the measured self-splicing fitness (ln) for this one? UUUAAGCAAUAUUACGCUAU
**Result** -2.94

**Query** So what's the measured self-splicing fitness (ln) for this one? GCCGAGCAAUAUUACGGACG
**Result** -2.44

The measurements presented in this section are drawn from the supplement of paper PMC7877785.
